# MEASUREMENT NOTES: Half-life of compound in presence of hydrogen peroxide
# Format: ADME
MEASURE NAME: half-life
// unit must come after the numeric part

Using the record for Cc1cn(C2C=CC(COC(=O)C3=CN(C)C=CC3)O2)c(=O)[nH]c1=O (stereo unspecified) , state its measured half-life. 21 min

---

# MEASUREMENT NOTES: Half-life of compound in presence of human plasma
# Type: ADME
MEASURE NAME: half-life (h)
Give the quantity in h, number only.

Using the record for Cc1cn(C2C=CC(COC(=O)C3=CN(C)C=CC3)O2)c(=O)[nH]c1=O (stereo unspecified) , state its measured half-life. 5.42
